- System: HL-60(TB) leukemia
- Method: NCI-60 one-dose screen, 48 h
- Experimental Context: 10 µM unless noted
Compounds without any hit were thinned out: in the full panel of roughly 83,000, 20% have a hit. The source made the active and inactive calls. How the source made its calls: active means growth percent below 10; inactive means the rest.
Parameter call: string, one of 1 (yes) (active), 0 (no) (inactive)

See these solved cases before continuing.
Compound	Assigned Category
Cc1ccc(C(=O)OC(C(=O)O)C(OC(=O)c2ccc(C)cc2)C(=O)O)cc1 (stereo not drawn) (tested in a mixture with another compound)	0 (no)
COc1ccc(OC)c(/C=C/[N+](=O)[O-])c1	1 (yes)

Could you now consider this next compound?
Returns: the outcome recorded for COC1=C(C)C(=O)C2=C(C1=O)C(CO)N1C(C#N)C3CC4C(C1C2N1CCOC41)N3C (stereo not drawn) in this assay.
1 (yes)
